systemTested: T1, biotinylated human recombinant IL-12Rβ2 (produced in-house) (human, UniProt Q99665 24-622, random biotinylated)
T1 construct: Soluble recombinant protein used for panning, ELISA and BLI; also called hIL-12RB2; hIL12RB2
T1 sequence: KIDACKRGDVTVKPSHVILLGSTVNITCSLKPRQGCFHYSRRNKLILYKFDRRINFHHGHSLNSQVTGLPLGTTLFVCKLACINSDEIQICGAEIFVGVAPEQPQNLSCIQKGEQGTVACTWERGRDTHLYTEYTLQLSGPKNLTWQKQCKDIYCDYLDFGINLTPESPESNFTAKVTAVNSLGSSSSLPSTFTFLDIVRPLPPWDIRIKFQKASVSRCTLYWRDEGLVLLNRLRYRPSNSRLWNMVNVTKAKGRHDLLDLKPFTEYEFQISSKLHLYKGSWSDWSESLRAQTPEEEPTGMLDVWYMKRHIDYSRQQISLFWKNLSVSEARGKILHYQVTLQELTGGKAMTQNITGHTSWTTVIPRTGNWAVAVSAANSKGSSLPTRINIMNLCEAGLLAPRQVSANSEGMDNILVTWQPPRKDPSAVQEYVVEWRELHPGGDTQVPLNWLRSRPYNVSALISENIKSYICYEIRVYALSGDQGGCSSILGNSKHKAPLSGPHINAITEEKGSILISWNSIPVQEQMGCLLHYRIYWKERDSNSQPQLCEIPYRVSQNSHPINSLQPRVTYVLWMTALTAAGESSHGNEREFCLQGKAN
protocolSummary: BLI (Octet Red), periplasmic extract on biotinylated human IL-12Rβ2 on streptavidin tips
Assignment: determine reported Response for the given binders.
Give bare numbers.

These recorded examples may help you get a feel for the data.
- anti-IL-12Rβ2 VHH clone 3CRHS9 (clone ID 20415) (VHH, Tested as periplasmic extract; also called 3CRMS9; not shown: C-terminal HA tag) VHH: QVQLQESGGGLVQPGGSLRLSCTASGSIVSIYNMDWYRQAPGNEREWVASITSSGDPYYDGSAKGRFTISRDNAKMTVYLQMNSLKPEDTAVYYCKVPTEKGNYWGQGTQVTVSS: 0.222
- anti-IL-12Rβ2 VHH clone 3CAHS102 (clone ID 20399) (VHH, Tested as periplasmic extract; not shown: C-terminal HA tag) VHH: QVQLQESGGGLVQPGGSLRLSCAASGSILRINLMGWYRQVPGKQRELVAEMSTGGSTTYVDSVEGRFTISRDNAKNTVYLQMNSLKPEDTAVYYCNAKAWQLGRLENDDWGQGTQVTVSS: 0.323
- anti-IL-12Rβ2 VHH clone 3CAHS171 (clone ID 20407) (VHH, Tested as periplasmic extract; not shown: C-terminal HA tag) VHH: QVQLQESGGGLVQPGGSLRLTCVASGFPFSTHAMSWVRQPPGKGREWISAINSGGDSTDYADSVMGRFTISRDNAKNTVYLQMNSLKSEDTAAYYCAKYEDCSDYDCSSRASWGQGTQVTVSS: 0.195
- anti-IL-12Rβ2 VHH clone 3CRHM14 (clone ID 21053) (VHH, Tested as periplasmic extract; not shown: C-terminal HA tag) VHH: QVQLQESGGGLVQAGGSLRLSCAASGRTFSNYAMAWFRQAPGTEREFVAGLSGSGGDTEFYDDSVKGRFAISRDSAKNTVWLQMNSLKPEDTAVYYCAAATHVVVHYGLVRRRGTYDYWGQGTQVTVSS: 1.19
- anti-IL-12Rβ2 VHH clone 3CRH5 (clone ID 20373) (VHH, Tested as periplasmic extract; also called 3CRHS; not shown: C-terminal HA tag) VHH: QVQLQESGGGLVQAGGSLVLSCAASGSAALIFLMSWYRQAPGKQRELVAEVSRGGSTTYADSVEGRFTISRDNAKNIVDLQMNSLKPEDTAVYYCKADQNYGDSLRSSWGQGTQVTVSS: 0.491
- anti-IL-12Rβ2 VHH clone 3CAHS41 (clone ID 20394) (VHH, Tested as periplasmic extract; not shown: C-terminal HA tag) VHH: QVQLQESGGGLVQAGDSLRLSCAASGRTFDTYIVGWFRQAPGKEREFVSALSWSDDTTIRDDSLRGRFTISRDNAKNTVYLLMNSLKPEDTAVYYCAAKAKPPAATWSSYRNREWYDYWGQGTQVTVSS: 0.509
- anti-IL-12Rβ2 VHH clone 3CRHM99 (clone ID 21062) (VHH, Tested as periplasmic extract; not shown: C-terminal HA tag) VHH: QVQLQESGGGLVQPGGSLRLSCAASGISSSRLHVGWFRQSPGKEREFVAAISLSGGTQAYTDSVKGRFTISGDNVKNTAYLQMNSLRPEDTAVYYCAARERFIWTWSDLTYDYWGQGTQVTVSS: 1.45
- anti-IL-12Rβ2 VHH clone 3CRHM73 (clone ID 21060) (VHH, Tested as periplasmic extract; not shown: C-terminal HA tag) VHH: QVQLQESGGGLVQAGGSLSLSCAASGSAFRLNFMGWYRQAPGKQRELVAAINSGGTEIYHDSVKGRFTISRDNADSTVWLQMNSLKPDDTAVYYCAADRGISWSKLAGGMDYWGKGTQVTVSS: 1.45
- anti-IL-12Rβ2 VHH clone 3CRH25 (clone ID 20378) (VHH, Tested as periplasmic extract; not shown: C-terminal HA tag) VHH: QVQLQESGGGLVQAGDSLRLSCTASGHTFSRYTTIGWFRQAPGKDREFVAAIRWSGDITDYADAVKGRFTISRDNVKNTVYLQMNSLNPEDTAVYYCARGYSEYGVLSRNRGLYAYWGQGTQVTVSS: 0.523
- anti-IL-12Rβ2 VHH clone 3CAHS124 (clone ID 20400) (VHH, Tested as periplasmic extract; not shown: C-terminal HA tag) VHH: QVQLQESGGGLVQPGGSLRLSCAASGRTINAYIMGWFRQAPGKEREFVAAVSGSGGSTYYADSVKGRFTISRDNAKNTVNLQMDNLRSEDTDVYYCAATYESVYLQNPGQYDYWGQGTQVTVSS: 0.293

Record Response for all entries; do not skip any.
1. anti-IL-12Rβ2 VHH clone 3CAHM11 (clone ID 21050) (VHH, Tested as periplasmic extract; not shown: C-terminal HA tag) VHH: QVQLQESGGGLVQAGGSLRLSCAASGRTFNNYAMAWFRQAPGKEREFIAAITRSDTTLYIDSVKGRFTISRDNAKNTVALQMNSLKPEDTAVYYCAAGMPYSYSDYPRDSKYDYWGRGTQVTVSS
2. anti-IL-12Rβ2 VHH clone 3CRHS51 (clone ID 20421) (VHH, Tested as periplasmic extract; also called 3CRHSS1; not shown: C-terminal HA tag) VHH: QVQLQESGGGLVQPGGSLRLSCAASGFTFSTYAMSWVRQAPGKGLEWVSAVNSGGLSTDYADSVEGRFTISRDDAKNMLFLQMNRLKPEDTARYYCAKYEDCSDYVCDRAGYWGQGTQVTVSS
3. anti-IL-12Rβ2 VHH clone 3CRHS106 (clone ID 20429) (VHH, Tested as periplasmic extract; not shown: C-terminal HA tag) VHH: QVQLQESGGGLVQPGGSLRLSCKASGFTFSTYAMSWVRQAPGKGLEWVSAVNSGGLSTDYADSVEGRFTISRDDAKNMLFLQMNSLKPEDTARYYCAKYEDCSDYMCHRDRAGYWGQGTQVTVSS
4. anti-IL-12Rβ2 VHH clone 3CAHS142 (clone ID 20401) (VHH, Tested as periplasmic extract; not shown: C-terminal HA tag) VHH: QVQLQESGGGLVQAGESLTLSCIASGVIKDYAMGWFRQAPGKEREFVAAISWSGVSIYYADSVKGRFTISRDNAKNTVYLQMNSLEPEDTAVYYCAGTEGAYTVAGGSTFGYDMDYWGKGTQVTVSS
5. anti-IL-12Rβ2 VHH clone 3CRHS128 (clone ID 20432) (VHH, Tested as periplasmic extract; not shown: C-terminal HA tag) VHH: QVQLQESGGGLVQPGGSLRLSCAASGFTFSTSGMHWFRQAPGKGLEWVSSIGATVDNSYYASSVKGRFTISRDNAKNTLYLLMNSLKSEDTAVYYCSKDPTGSSRGQGTQVTVSS

Result:
1. 1.4
2. 0.327
3. 0.297
4. 0.352
5. 0.294
